tested on: P388 leukemia ip, CD2F1 mice, survival T/C; assay: NCI In Vivo Anticancer Drug Screen. Data for tumor model P388 Leukemia (intraperitoneal) in CD2F1 (CDF1) mice; conditions: endpoint: median survival time; dose: 400.0 mg/kg/injection; schedule: Q01DX001 (ip); vehicle: saline with Tween-80; higher = longer survival
Inconclusive results and toxic doses are left out.
metric: T/C

Which value of T/C has been reported for O=S1(=O)C2CCCCC2C2CCCCC21 (stereo not given) in the records? 113 % of control

Which value of T/C has been reported for Cc1ccc2ccccc2c1NS(=O)(=O)c1ccccc1 in the records? 91 % of control

Which value of T/C has been reported for C=C1OC(C)=C(C(=O)OC(C)(C)C)C1C (stereo not given) in the records? 105 % of control

Which value of T/C has been reported for CC(C)(C)[Si](C)(C)OCc1ccccc1N1C(=O)C(N=[N+]=[N-])C1/C=C/c1ccccc1 (stereo not given) in the records? 89 % of control

Which value of T/C has been reported for Clc1ccc2c(c1)C1CN(C2)Cc2ccc(Cl)cc21 in the records? 93 % of control

* * *

system: P388 leukemia ip, CD2F1 mice, survival T/C; experiment: NCI In Vivo Anticancer Drug Screen. Data for tumor model P388 Leukemia (intraperitoneal) in CD2F1 (CDF1) mice; conditions: endpoint: median survival time; dose: 100.0 mg/kg/injection; schedule: Q04DX003 (ip); vehicle: Klucel (hydroxypropylcellulose) (HPC); higher = longer survival
Inconclusive results and toxic doses are left out.
Record form. Attribute: T/C. Fill in for each entry.

Can you look up T/C on P388 leukemia ip, CD2F1 mice, survival T/C for CC(C)(C)C1CCC=CC(=O)C1 (configuration not stated) ? 105 % of control

Can you look up T/C on P388 leukemia ip, CD2F1 mice, survival T/C for Fc1ccc(CN2COc3c(ccc4cccnc34)C2)c(F)c1 ? 95 % of control

Can you look up T/C on P388 leukemia ip, CD2F1 mice, survival T/C for CCSC1=C(SCC)C1SCC ? 113 % of control

Can you look up T/C on P388 leukemia ip, CD2F1 mice, survival T/C for COc1ccc(C(=O)/C=C/c2ccc(OC)c(OC)c2OC)c(O)c1 ? 99 % of control

Can you look up T/C on P388 leukemia ip, CD2F1 mice, survival T/C for O=C1CC(c2ccccc2)C(c2ccccc2)C(=O)O1 (configuration not stated) ? 87 % of control

Can you look up T/C on P388 leukemia ip, CD2F1 mice, survival T/C for NC(=S)c1cccc(C=Nc2ccccc2)n1 ? 91 % of control

Can you look up T/C on P388 leukemia ip, CD2F1 mice, survival T/C for [O-]c1n[n+](Cc2ccc(Br)cc2)no1 ? 100 % of control

* * *

tested on: P388 leukemia ip, CD2F1 mice, survival T/C; assay: NCI In Vivo Anticancer Drug Screen. Data for tumor model P388 Leukemia (intraperitoneal) in CD2F1 (CDF1) mice; conditions: endpoint: median survival time; dose: 12.5 mg/kg/injection; schedule: Q01DX009 (ip); vehicle: saline with Tween-80
Toxic doses and inconclusive results are not listed. How the source made its calls: active means survival T/C of 150% or more; inactive means T/C below 125% in these data.
The reply should name one outcome from active, inactive

Kindly provide the recorded test outcome for the following compound: O=P(c1ccccc1)(c1ccccc1)c1ccccc1.O=P(c1ccccc1)(c1ccccc1)c1ccccc1.O=P(c1ccccc1)(c1ccccc1)c1ccccc1.O=P(c1ccccc1)(c1ccccc1)c1ccccc1.[Ni+2].[O-][Cl+3]([O-])([O-])O inactive

Kindly provide the recorded test outcome for the following compound: CCN(CC)CCCCNc1ccc(NCCCCN(CC)CC)c2c1C(=O)c1ccccc1C2=O inactive

Kindly provide the recorded test outcome for the following compound: [Cl][Sn]([Cl])([c]1ccccc1)[c]1ccccc1.c1ccncc1.c1ccncc1 active

Kindly provide the recorded test outcome for the following compound: Cc1cc(/C=C\c2ccc3ccccc3[n+]2C)c(O)c2ncccc12 inactive

Kindly provide the recorded test outcome for the following compound: CC(=O)C(C)C(C)=O inactive

Kindly provide the recorded test outcome for the following compound: Cc1ccccc1C(=O)Nc1ccccc1-c1ccccc1 inactive

Kindly provide the recorded test outcome for the following compound: COc1ccc(Cc2nncc3ccccc23)cc1OC inactive

Kindly provide the recorded test outcome for the following compound: NC(N)=N/N=C1\C/C(=N\N=C(N)N)c2ccccc21 inactive

Kindly provide the recorded test outcome for the following compound: Cc1ccc(S(=O)(=O)N/N=C/C(=O)O)cc1 inactive

Kindly provide the recorded test outcome for the following compound: Brc1ccc[n+](CCc2ccccc2)c1 inactive

Kindly provide the recorded test outcome for the following compound: CCOC(=O)C1CC(=O)C1C(=O)OCC (configuration not stated) inactive

Kindly provide the recorded test outcome for the following compound: O=[N+]([O-])c1c(Sc2ncccn2)ncnc1Sc1ncccn1 inactive

Values from PubChem BioAssay AID330
